testTarget: Recombinant heterodimeric HCV NS3/NS4A protease (strain 1a) (Hepatitis C virus genotype 1a, UniProt P27958)
measurementNotes: biochemical
*1 amine or outer side, *2 acyl side, *3 side chain or, on linkers, in order; H or OH if unused. Where a SMILES comes first, the peptide text is derived from it. Bridges are numbered along the chain shown (N, C = ends). [ ]: non-standard residue; d: D form. ξ: configuration not given here. Phe(3-(CH2)7CO) = O=C([C@H](Cc1cccc(CCCCCCCC(=O)[*:3])c1)N[*:1])[*:2]; Azelaoyl = O=C(CCCCCCCC(=O)[*:2])[*:1]; Glutaryl = O=C(CCCC(=O)[*:2])[*:1]; X1 = CCCC(N[*:1])C(=O)C(=O)[*:2]; Chg = N[C@H](C(=O)O)C1CCCCC1; Phg = N[C@H](C(=O)O)c1ccccc1; Suc = O=C(CCC(=O)[*:2])[*:1]; ξChg = NC(C(=O)O)C1CCCCC1
Ki reference

molecule: CCCC(NC(=O)C1Cc2cccc(c2)Oc2ccc(cc2)CCC(=O)NC(C2CCCCC2)C(=O)O1)C(=O)C(=O)NCC(=O)NC(C(=O)OC(C)(C)C)c1ccccc1 (centres unmarked) [Example 33]
Ki: 1100 to 100000 nM
--
molecule: CCCC(NC(=O)[C@@H]1Cc2cccc(c2)OCCCCCCC(=O)N[C@@H](C2CCCCC2)C(=O)N1)C(=O)C(=O)NCC(=O)N[C@H](C(=O)OC(C)(C)C)c1ccccc1 (some centres unmarked) [Example 11]
Ki: 1100 to 100000 nM
--
molecule: CCCC(NC(=O)C1Cc2cccc(c2)Oc2ccc(cc2)CCCCC(=O)NC(C2CCCCC2)C(=O)N1)C(=O)C(=O)NCC(=O)NC(C(=O)OC(C)(C)C)c1ccccc1 (centres unmarked) [Example 7]
Ki: 1100 to 100000 nM
--
molecule: CCCC(NC(=O)[C@@H]1CCCCNC(=O)CCCC(=O)NC(C2CCCCC2)C(=O)N1)C(=O)C(=O)NCC(=O)N[C@H](C(N)=O)c1ccccc1 (some centres unmarked) [Example 40] ([ξChg]K[X1]G[Phg]-NH2; linker N-2 via Glutaryl)
Ki: 1100 to 100000 nM
--
molecule: CCCC(NC(=O)[C@H]1Cc2cccc(c2)Oc2ccc(cc2)CCC(=O)N[C@@H](C2CCCCC2)C(=O)O1)C(=O)C(=O)NCC(=O)N[C@H](C(=O)O)c1ccccc1 (some centres unmarked) [Example 38]
Ki: 1100 to 100000 nM
--
molecule: CCCC(NC(=O)[C@@H]1Cc2cccc(c2)OCCCCCCC(=O)N[C@@H](C2CCCCC2)C(=O)N1)C(=O)C(=O)NCC(=O)N[C@H](C(=O)O)c1ccccc1 (some centres unmarked) [Example 12]
Ki: 1 to 1000 nM
--
molecule: CCCC(NC(=O)C1Cc2cccc(c2)OCCCCCCC(=O)NC(C2CCCCC2)C(=O)O1)C(=O)C(=O)NCC(=O)N[C@H](C(=O)N(C)C)c1ccccc1 (some centres unmarked) [Example 36]
Ki: 1100 to 100000 nM
--
molecule: CCCC(NC(=O)C1Cc2cccc(c2)Oc2ccc(cc2)CCC(=O)NC(C2CCCCC2)C(=O)N1)C(=O)C(=O)NCC(=O)OC(C)(C)C (centres unmarked) [Example 3]
Ki: 1100 to 100000 nM
--
molecule: CCCC(NC(=O)[C@@H]1Cc2cn(cn2)CCCCCCCC(=O)N[C@@H](C2CCCCC2)C(=O)N1)C(=O)C(=O)NCC(=O)N[C@H](C(=O)O)c1ccccc1 (some centres unmarked) [Example 24]
Ki: 1100 to 100000 nM
--
molecule: CCCC(NC(=O)C1Cc2cccc(c2)Oc2ccc(cc2)CCC(=O)NC(C2CCCCC2)C(=O)N1)C(=O)C(=O)NCC(=O)O (centres unmarked) [Example 4]
Ki: 1100 to 100000 nM
--
molecule: CCCC(NC(=O)[C@@H]1CCCCNC(=O)CCC(=O)N[C@@H](C2CCCCC2)C(=O)N1)C(=O)C(=O)NCC(=O)N[C@H](C(N)=O)c1ccccc1 (some centres unmarked) [Example 51] ([Chg]K[X1]G[Phg]-NH2; linker N-2 via Suc)
Ki: 1100 to 100000 nM
--
molecule: CCCC(NC(=O)[C@@H]1CCCCNC(=O)Cc2ccc(cc2)CC(=O)N[C@@H](C2CCCCC2)C(=O)N1)C(=O)C(=O)NCC(=O)N[C@H](C(N)=O)c1ccccc1 (some centres unmarked) [Example 44]
Ki: 1 to 1000 nM
--
molecule: CCCC(NC(=O)[C@@H]1Cc2cccc(c2)CCCCCCCC(=O)N[C@@H](C2CCCCC2)C(=O)N1)C(=O)C(=O)NCC(=O)N[C@H](C(=O)O)c1ccccc1 (some centres unmarked) [Example 18] ([Chg][Phe(3-(CH2)7CO)][X1]G[Phg]-OH; lactam N-2)
Ki: 1 to 1000 nM
--
molecule: CCCC(NC(=O)C1Cc2cccc(c2)Oc2ccc(cc2)CCCC(=O)NC(C2CCCCC2)C(=O)N1)C(=O)C(=O)NCC(=O)NC(C(=O)O)c1ccccc1 (centres unmarked) [Example 6]
Ki: 1 to 1000 nM
--
molecule: CCCC(NC(=O)C1Cc2cccc(c2)Oc2ccc(cc2)CC(NC(C)=O)C(=O)NC(C2CCCCC2)C(=O)N1)C(=O)C(=O)NCC(=O)NC(C(=O)OC(C)(C)C)c1ccccc1 (centres unmarked) [Example 29]
Ki: 1100 to 100000 nM
--
molecule: CCCC(NC(=O)[C@@H]1CCCCNC(=O)CCCCCCCC(=O)N[C@@H](C2CCCCC2)C(=O)N1)C(=O)C(=O)NCC(=O)N[C@H](C(N)=O)c1ccccc1 (some centres unmarked) [Example 42] ([Chg]K[X1]G[Phg]-NH2; linker N-2 via Azelaoyl)
Ki: 1100 to 100000 nM
--
molecule: CCCC(NC(=O)[C@@H]1CCCCNC(=O)CCCC(=O)N[C@H](CC(=O)O)C(=O)N[C@@H](C2CCCCC2)C(=O)N1)C(=O)C(=O)NCC(=O)N[C@H](C(N)=O)c1ccccc1 (some centres unmarked) [Example 46] ([dD][Chg]K[X1]G[Phg]-NH2; linker N-3 via Glutaryl)
Ki: 1100 to 100000 nM
--
molecule: CCCC(NC(=O)[C@@H]1Cc2cccc(c2)Oc2ccc(cc2)CC(NC(C)=O)C(=O)N[C@@H](C2CCCCC2)C(=O)N1)C(=O)C(=O)NCC(=O)N[C@H](C(=O)O)c1ccccc1 (some centres unmarked) [Example 30]
Ki: 1 to 1000 nM
--
molecule: CCCC(NC(=O)C1Cc2cccc(c2)Oc2ccc(cc2)CCCCC(=O)NC(C2CCCCC2)C(=O)N1)C(=O)C(=O)NCC(=O)NC(C(=O)O)c1ccccc1 (centres unmarked) [Example 8]
Ki: 1 to 1000 nM
--
molecule: CCCC(NC(=O)[C@@H]1Cc2cccc(c2)C=CCCCCCC(=O)N[C@@H](C2CCCCC2)C(=O)N1)C(=O)C(=O)NCC(=O)N[C@H](C(=O)OC(C)(C)C)c1ccccc1 (some centres unmarked) [Example 15]
Ki: 1100 to 100000 nM

* * *

testTarget: Recombinant heterodimeric HCV NS3/NS4A protease (strain 1a) (Hepatitis C virus genotype 1a, UniProt P27958)
measurementNotes: biochemical
*1 amine or outer side, *2 acyl side, *3 side chain or, on linkers, in order; H or OH if unused. Where a SMILES comes first, the peptide text is derived from it. Bridges are numbered along the chain shown (N, C = ends). [ ]: non-standard residue; d: D form. The star is where a group is joined. Phe(3-(CH2)7CO) = O=C([C@H](Cc1cccc(CCCCCCCC(=O)[*:3])c1)N[*:1])[*:2]; Suberoyl = O=C(CCCCCCC(=O)[*:2])[*:1]; Adipoyl = O=C(CCCCC(=O)[*:2])[*:1]; X1 = CCCC(N[*:1])C(=O)C(=O)[*:2]; Chg = N[C@H](C(=O)O)C1CCCCC1; Phg = N[C@H](C(=O)O)c1ccccc1; OtBu = CC(C)(C)O*

compound: CCCC(NC(=O)[C@@H]1CCCCNC(=O)Cc2cccc(c2)CC(=O)N[C@@H](C2CCCCC2)C(=O)N1)C(=O)C(=O)NCC(=O)N[C@H](C(N)=O)c1ccccc1 (stereo partly shown)
Ki: 1 to 1000 nM
//
compound: CCCC(NC(=O)[C@@H]1Cc2cccc(c2)Oc2ccc(cc2)CCC(=O)N[C@@H](C2CCCCC2)C(=O)O1)C(=O)C(=O)NCC(=O)N[C@H](C(=O)N(C)C)c1ccccc1 (stereo partly shown)
Ki: 1100 to 100000 nM
//
compound: CCCC(NC(=O)[C@@H]1CCCCNC(=O)CCCCC(=O)N[C@@H](C2CCCCC2)C(=O)N1)C(=O)C(=O)NCC(=O)N[C@H](C(N)=O)c1ccccc1 (stereo partly shown) [Example 52] ([Chg]K[X1]G[Phg]-NH2; linker N-2 via Adipoyl)
Ki: 1 to 1000 nM
//
compound: CCCC(NC(=O)[C@@H]1Cc2cccc(c2)CCCCCCCC(=O)N[C@@H](C2CCCCC2)C(=O)N1)C(=O)C(=O)NCC(=O)N[C@H](C(=O)OC(C)(C)C)c1ccccc1 (stereo partly shown) [Example 17] ([Chg][Phe(3-(CH2)7CO)][X1]G[Phg]-OtBu; lactam N-2)
Ki: 1100 to 100000 nM
//
compound: CCCC(NC(=O)[C@@H]1CCCCNC(=O)CCCCCCC(=O)N[C@@H](C2CCCCC2)C(=O)N1)C(=O)C(=O)NCC(=O)N[C@H](C(N)=O)c1ccccc1 (stereo partly shown) [Example 41] ([Chg]K[X1]G[Phg]-NH2; linker N-2 via Suberoyl)
Ki: 1 to 1000 nM
//
compound: CCCC(NC(=O)C1Cc2cccc(c2)Oc2ccc(cc2)CCC(=O)NC(C2CCCCC2)C(=O)O1)C(=O)C(=O)NCC(=O)NC(C(=O)O)c1ccccc1 (stereo not shown)
Ki: 1100 to 100000 nM
//
compound: CCCC(NC(=O)C1Cc2cccc(c2)Oc2ccc(cc2)CCC(=O)NC(C2CCCCC2)C(=O)N1)C(=O)C(=O)NCC(=O)NC(C(=O)O)c1ccccc1 (stereo not shown)
Ki: 1 to 1000 nM
//
compound: CCCC(NC(=O)C1Cc2cccc(c2)Oc2ccc(cc2)CC(NC(C)=O)C(=O)NC(C2CCCCC2)C(=O)N1)C(=O)C(=O)NCC(=O)OC(C)(C)C (stereo not shown)
Ki: 1100 to 100000 nM
//
compound: CCCC(NC(=O)[C@@H]1Cc2cccc(c2)OCCCCCC(=O)N[C@@H](C2CCCCC2)C(=O)N1)C(=O)C(=O)NCC(=O)N[C@H](C(=O)O)c1ccccc1 (stereo partly shown)
Ki: 1100 to 100000 nM
//
compound: CCCC(NC(=O)C1Cc2cn(cn2)CCCCCCCC(=O)NC(C2CCCCC2)C(=O)N1)C(=O)C(=O)NCC(=O)NC(C(=O)OC(C)(C)C)c1ccccc1 (stereo not shown)
Ki: 1100 to 100000 nM
